# Test system: herpes simplex virus Type I
# ASSAY METHOD TEXT: Inactivation of virus (30 minutes incubation, plaque assay)
# Type: cell-based, Type 1, Troisbel strain
# RECORDED CONDITIONS: Human alphaherpesvirus 1, 0.5 h; 5 mg/l; read-out: Inactivation of virus (log10 reduction in virus titre)
If the reported log reduction at 5 µg/mL equals or exceeds 2, assign true (1). If not, assign false (0).

SMILES INPUT: CCCCC/C=C\C/C=C\CCCCCCCC(=O)Nc1nc2c(ncn2COCCOC(=O)CCCCCCC/C=C\C/C=C\CCCCC)c(=O)[nH]1
LABEL VALUE: false (0)

SMILES INPUT: CCCCC/C=C\C/C=C\C/C=C\CCCCC(=O)Nc1nc2c(ncn2COCCOC(=O)CCCC/C=C\C/C=C\C/C=C\CCCCC)c(=O)[nH]1
LABEL VALUE: false (0)

SMILES INPUT: CCCCC/C=C\C/C=C\C/C=C\CCCCC(=O)Nc1nc2c(ncn2COCCO)c(=O)[nH]1
LABEL VALUE: false (0)

SMILES INPUT: CCCCC/C=C\C/C=C\CCCCCCCC(=O)OC[C@H]1O[C@@H]2C[C@H]1Oc1nc(=O)c(C)cn12
LABEL VALUE: true (1)

SMILES INPUT: CCCCC/C=C\C/C=C\CCCCCCCC(=O)OC[C@H]1O[C@@H](n2cc(C)c(=O)[nH]c2=O)C[C@@H]1N=[N+]=[N-]
LABEL VALUE: true (1)

SMILES INPUT: CCCCC/C=C\C/C=C\CCCCCCCC(=O)Nc1nc2c(ncn2COCCO)c(=O)[nH]1
LABEL VALUE: false (0)

###

# ASSAY METHOD TEXT: in vitro
# Type: cell-based
# RECORDED CONDITIONS: human, mt-4 cells, CD50 (50% cytotoxic dose)
MEASUREMENT NAME: CC50 at 120 h (µg/mL)

COMPOUND: Cc1cn([C@H]2C=C[C@@H](CO)O2)c(=O)[nH]c1=O [AK 16, dideoxy-didehydro thymidine, reference compound]
VAL: 44.4

COMPOUND: CCCCC/C=C\C/C=C\C/C=C\CCCCC(=O)OC[C@H]1O[C@@H]2C[C@H]1Oc1nc(=O)c(C)cn12 [AK 3, GLA - Anhydrothymidine]
VAL: 17.7

COMPOUND: CCCCC/C=C\C/C=C\CCCCCCCC(=O)OC[C@H]1O[C@@H]2C[C@H]1Oc1nc(=O)c(C)cn12
VAL: 18.2

COMPOUND: CCCCC/C=C\C/C=C\C/C=C\CCCCC(=O)OC[C@@H]1C=C[C@H](n2cc(C)c(=O)[nH]c2=O)O1
VAL: 10.3

###

Here, each record is paired with measured CD50 (50% cytotoxic dose) data.
# System: MT-4 cells
# ASSAY METHOD TEXT: in vitro
# Assay type: cell-based
# RECORDED CONDITIONS: human, 120 h

MOLECULE: CCCCC/C=C\C/C=C\CCCCCCCC(=O)OC[C@H]1O[C@@H]2C[C@H]1Oc1nc(=O)c(C)cn12 [AK 4]
CD50 (50% cytotoxic dose): 17.4332 µg/mL
--
MOLECULE: CCCCC/C=C\C/C=C\CCCCCCCC(=O)OC[C@H]1O[C@@H](n2cc(C)c(=O)[nH]c2=O)C[C@@H]1N=[N+]=[N-] [AK 2]
CD50 (50% cytotoxic dose): 5.9512 µg/mL
--
MOLECULE: CCCCC/C=C\C/C=C\C/C=C\CCCCC(=O)OC[C@H]1O[C@@H](n2cc(C)c(=O)[nH]c2=O)C[C@@H]1N=[N+]=[N-] [AK 1, GLA - 3'azido-3'-deoxythymidine]
CD50 (50% cytotoxic dose): 8.3825 µg/mL
--
MOLECULE: CCCCC/C=C\C/C=C\CCCCCCCC(=O)Nc1nc2c(ncn2COCCOC(=O)CCCCCCC/C=C\C/C=C\CCCCC)c(=O)[nH]1 [AK 11]
CD50 (50% cytotoxic dose): 10.1674 µg/mL
--
MOLECULE: CCCCC/C=C\C/C=C\C/C=C\CCCCC(=O)OC[C@H]1O[C@@H]2C[C@H]1Oc1nc(=O)c(C)cn12 [AK 3, GLA - Anhydrothymidine]
CD50 (50% cytotoxic dose): 16.8593 µg/mL
--
MOLECULE: CCCCC/C=C\C/C=C\CCCCCCCC(=O)OC[C@@H]1C=C[C@H](n2cc(C)c(=O)[nH]c2=O)O1 [AK 15]
CD50 (50% cytotoxic dose): 24.23 µg/mL
--
MOLECULE: Nc1nc2c(ncn2COCCO)c(=O)[nH]1 [AK 9, Acyclovir, reference compound]
CD50 (50% cytotoxic dose): 397.5805 µg/mL
